These entries and their values trace back to patent US20260176265A1.

Target: Phospho-EGFR (Tyr1068) in H1975 cells (Homo sapiens, UniProt P00533, L858R/T790M)
Sequence (P00533 25-1210 T790M/L858R): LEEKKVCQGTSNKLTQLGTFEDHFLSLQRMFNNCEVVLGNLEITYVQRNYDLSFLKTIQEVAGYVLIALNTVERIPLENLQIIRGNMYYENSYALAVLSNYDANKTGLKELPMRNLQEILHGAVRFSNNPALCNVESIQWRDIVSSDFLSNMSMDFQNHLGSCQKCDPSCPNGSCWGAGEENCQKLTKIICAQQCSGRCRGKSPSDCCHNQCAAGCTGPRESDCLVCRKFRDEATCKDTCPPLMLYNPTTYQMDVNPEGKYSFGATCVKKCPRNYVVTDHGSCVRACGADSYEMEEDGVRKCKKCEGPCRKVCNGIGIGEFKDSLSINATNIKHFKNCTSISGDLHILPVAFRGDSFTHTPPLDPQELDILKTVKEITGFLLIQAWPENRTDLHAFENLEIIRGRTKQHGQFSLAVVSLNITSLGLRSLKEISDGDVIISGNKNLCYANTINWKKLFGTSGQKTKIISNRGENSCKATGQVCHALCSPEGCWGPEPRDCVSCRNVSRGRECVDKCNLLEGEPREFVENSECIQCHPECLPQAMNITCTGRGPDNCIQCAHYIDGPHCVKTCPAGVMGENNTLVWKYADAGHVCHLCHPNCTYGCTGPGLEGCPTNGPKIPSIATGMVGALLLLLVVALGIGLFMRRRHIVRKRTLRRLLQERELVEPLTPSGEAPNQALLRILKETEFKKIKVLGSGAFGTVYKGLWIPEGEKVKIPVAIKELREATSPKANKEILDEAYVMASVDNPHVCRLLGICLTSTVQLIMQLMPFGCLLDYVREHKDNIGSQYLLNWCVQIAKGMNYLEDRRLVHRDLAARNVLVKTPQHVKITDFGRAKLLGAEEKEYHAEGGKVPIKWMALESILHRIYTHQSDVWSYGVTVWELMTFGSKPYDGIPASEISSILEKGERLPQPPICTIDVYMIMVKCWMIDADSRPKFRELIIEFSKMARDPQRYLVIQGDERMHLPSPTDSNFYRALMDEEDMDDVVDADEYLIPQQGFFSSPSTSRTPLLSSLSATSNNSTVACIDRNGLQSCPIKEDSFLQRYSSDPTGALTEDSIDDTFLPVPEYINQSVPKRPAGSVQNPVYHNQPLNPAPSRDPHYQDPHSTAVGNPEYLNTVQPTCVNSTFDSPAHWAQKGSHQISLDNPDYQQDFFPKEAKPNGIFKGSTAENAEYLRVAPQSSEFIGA
Test: HTRF pEGFR/total EGFR assay in H1975 cells
Details: compound 3 hours, ratio pEGFR/total EGFR
Assignment: determine reported IC50 for the given compounds.

Using known records, supply IC50 for C#Cc1cc(NC(=O)NCc2cncn2C)nc2nc(Nc3ccc(N4CCN(C)CC4)cc3)ncc12
> 3 µM

Using known records, supply IC50 for C#Cc1cc(NC(=O)N(C)C2CCCC2)nc2nc(Nc3ccc(N4CCN(C)CC4)cc3)ncc12
> 3 µM

Using known records, supply IC50 for C#Cc1cc(OCc2ccccc2)nc2nc(Nc3ccc(N4CCN(C)CC4)cc3)ncc12
> 3 µM

Using known records, supply IC50 for C#Cc1cc(OC)nc2nc(Nc3ccc(N4CCN(C)CC4)c(NCC4CCC4)c3)ncc12
> 3 µM

Using known records, supply IC50 for C#Cc1cc(N(C)C(=O)N(C)C2CCCC2)nc2nc(Nc3ccc(N4CCN(C)CC4)cc3)ncc12
> 3 µM

Using known records, supply IC50 for C#Cc1cc(OC)nc2nc(Nc3ccc(N4CCN(C)CC4)c(NC4CCC4)c3)ncc12
1 to 3 µM

Using known records, supply IC50 for C#Cc1cc(N(C)C)nc2nc(Nc3ccc(N(C)CCN(C)C)cc3)ncc12
> 3 µM

Using known records, supply IC50 for C#Cc1cc(N2C(=O)NCC23CCCC3)nc2nc(Nc3ccc(N4CCN(C5COC5)CC4)cc3)ncc12
0.5 to 1 µM

Using known records, supply IC50 for C#Cc1cc(OC(C)C)nc2nc(Nc3ccc(N4CCN(C)CC4)cc3)ncc12
1 to 3 µM

Using known records, supply IC50 for C#Cc1cc(NC(=O)NC2CCCC2)nc2nc(Nc3cccc(N(C)[C@H]4C[C@@H](CS(C)(=O)=O)C4)c3)ncc12
< 0.5 µM

Using known records, supply IC50 for C#Cc1cc(NC(=O)NC2CCCC2)nc2nc(Nc3ccc(N4CCOCC4)cc3)ncc12
< 0.5 µM

Using known records, supply IC50 for C#Cc1cc(N2C(=O)NC[C@@H]2C(C)C)nc2nc(Nc3ccc(N4CCN(C)CC4)cc3)ncc12
< 0.5 µM

Using known records, supply IC50 for C#Cc1cc(OC2CCCCC2)nc2nc(Nc3ccc(N4CCN(C)CC4)cc3)ncc12
> 3 µM

Using known records, supply IC50 for C#Cc1cc(N2C(=O)N(C)CC23CCCC3)nc2nc(Nc3ccc(N4CCOCC4)cc3)ncc12
< 0.5 µM

Using known records, supply IC50 for C#Cc1cc(NC(=O)NCC2CCCO2)nc2nc(Nc3ccc(N4CCN(C)CC4)cc3)ncc12 (stereo not shown)
< 0.5 µM

Using known records, supply IC50 for C#Cc1cc(NC(=O)NC2CCCC2)nc2nc(Nc3cccc(CN4CCC(CS(C)(=O)=O)CC4)c3)ncc12
> 3 µM

Using known records, supply IC50 for C#Cc1cc(Nc2nccn2C2CCCC2)nc2nc(Nc3ccc(N4CCN(C)CC4)cc3)ncc12
1 to 3 µM

Using known records, supply IC50 for C#Cc1cc(N2C(=O)NCC2C2CCCC2)nc2nc(Nc3ccc(N4CCN(C)CC4)cc3)ncc12 (stereo not shown)
0.5 to 1 µM

Using known records, supply IC50 for C#Cc1cc(NC(=O)NC2CCCC2)nc2nc(Nc3ccc(N(C)C(=O)CN(C)C)cc3)ncc12
< 0.5 µM

Using known records, supply IC50 for C#Cc1cc(NC(=O)NC2CCOC2)nc2nc(Nc3ccc(N4CCN(C)CC4)cc3)ncc12 (stereo not shown)
< 0.5 µM

Using known records, supply IC50 for C#Cc1cc(NC(=O)NC2CCCC2)nc2nc(Nc3ccccc3N3CCCC(CS(C)(=O)=O)C3)ncc12 (stereo not shown)
> 3 µM

Using known records, supply IC50 for C#Cc1cc(NC(=O)NC2(C)CCOC2)nc2nc(Nc3ccc(N4CCN(C)CC4)cc3)ncc12 (stereo not shown)
< 0.5 µM

Using known records, supply IC50 for C#Cc1cc(OC)nc2nc(Nc3cccc(CN(C)C)c3)ncc12
> 3 µM

Using known records, supply IC50 for C#Cc1cc(N2C(=O)N(C)CC23CCCC3)nc2nc(Nc3ccc(N(C)C(=O)CN(C)C)cc3)ncc12
> 3 µM

Using known records, supply IC50 for C#Cc1cc(N2C(=O)OCC2C2CCCC2)nc2nc(Nc3ccc(N4CCNCC4)cc3)ncc12 (stereo not shown)
0.5 to 1 µM

Using known records, supply IC50 for C#Cc1cc(NC(=O)NC2CCCC2)nc2nc(Nc3ccc(N4CCN(C)CC4)cc3)ncc12
< 0.5 µM

Using known records, supply IC50 for C#Cc1cc(NC(=O)Cc2ccccc2)nc2nc(Nc3ccc(N4CCN(C)CC4)cc3)ncc12
1 to 3 µM

Using known records, supply IC50 for C#Cc1cc(N2C(=O)N(C)CC23CCCC3)nc2nc(Nc3ccc(S(=O)(=O)N(C)C)cc3)ncc12
> 3 µM

Using known records, supply IC50 for C#Cc1cc(NC(=O)NCc2ccccc2)nc2nc(Nc3ccc(N4CCN(C)CC4)cc3)ncc12
< 0.5 µM

Using known records, supply IC50 for C#Cc1cc(NC(=O)NCC2CCCC2)nc2nc(Nc3ccc(N4CCN(C)CC4)cc3)ncc12
< 0.5 µM

Using known records, supply IC50 for C#Cc1cc(Oc2ccccc2)nc2nc(Nc3ccc(N4CCN(C)CC4)cc3)ncc12
> 3 µM
